Reference for the values: ChEMBL document CHEMBL4373692

# System: Klebsiella pneumoniae
# method summary: Inhibition of beta lactamase AmpC in Klebsiella pneumoniae C660 assessed as potentiation of meropenem-induced antibacterial activity by measuring meropenem MIC at 50 uM after 16 to 20 hrs by broth microdilution assay (reference value: 32 ug/ml)
Items are presented alongside their recorded MIC.
Hi! Could you send only the number? It should be in µg/mL, unit omitted.

Would you please look over these solved cases?
given smiles: C[C@H](CS)C(=O)N[C@@H](Cc1ccccc1)B(O)O
target desc: Klebsiella pneumoniae
measurement unit: µg/mL
MIC: 16

given smiles: C[C@H](CS)C(=O)N[C@H](Cc1ccccc1)B(O)O
target desc: Klebsiella pneumoniae
measurement unit: µg/mL
MIC: 16

given smiles: C[C@H](CS)C(=O)NCB(O)O
target desc: Klebsiella pneumoniae
measurement unit: µg/mL
MIC: 8

given smiles: C[C@H](CS)C(=O)N[C@@H](Cc1coc2ccccc12)B(O)O
target desc: Klebsiella pneumoniae
measurement unit: µg/mL
MIC: 8

given smiles: C[C@H](CS)C(=O)N[C@H](Cc1coc2ccccc12)B(O)O
target desc: Klebsiella pneumoniae
measurement unit: µg/mL
MIC: 8

Which MIC value belongs to "C[C@]1(Cn2ccnn2)[C@H](C(=O)O)N2C(=O)C[C@H]2S1(=O)=O" ? 16

State the recorded MIC for this entry: "C[C@H](CS)C(=O)N1CCC[C@H]1C(=O)O" 32
